Data origin: patent US20250270191A1

- ASSAYED_SYSTEM: Human BCL6 protein (N-terminal HiBiT tagged BCL6 in HT1080 cells) (Homo sapiens, UniProt P41182+Q96SW2)
- Construct: Human BCL6 protein coding open reading frame; expressed in transfected cells; host or cells: HT1080 (ATCC CCL-121), stably transduced with lentivirus pLV-UBC-N-HiBiT-BCL6-PGK-puro
- PROCEDURE_SUMMARY: HiBiT based BCL6 degradation assay
- Assay type: cell-based
- TEST_CONTEXT: HT1080 cells expressing N-terminal HiBiT tagged BCL6; 5 hours incubation; BCL6 degradation normalized with DMSO control
- Experimental: Human BCL6 protein coding open reading frame fused with N-terminal HiBiT coding sequence was synthesized from Integrated DNA Technologies (IDT). […] HT1080 cells expressing N-terminal HiBiT tagged BCL6 were dispensed into a 384-well plate pre-spotted with compounds at varying concentrations. […] After incubation, luminescence was read on a PHERAstar FSX Plate Reader (BMG). […]
MEASURED_QUANTITY: Ymin (5 hr)

COMPOUND	Ymin (5 hr)
CNC(=O)COc1cc2cc(Nc3nc(N4CCC(CN5CCN(C(=O)c6cccc7c(C8CCC(=O)NC8=O)nn(C)c67)CC5)CC4)ncc3Cl)ccc2n(C)c1=O (stereo not drawn)	+++ (25% < Ymin ≤ 50%)
CNC(=O)COc1cc2cc(Nc3nc(N4CCC[C@@H](COc5ccc6c(C7CCC(=O)NC7=O)nn(C)c6c5)C4)ncc3Cl)ccc2n(C)c1=O (stereo partly drawn) [Compound 302b]	++ (50% < Ymin ≤ 70%)
CNC(=O)COc1cc2cc(Nc3nc(N4CCN(C5CN(c6ccc7c(C8CCC(=O)NC8=O)nn(C)c7c6)C5)CC4)ncc3Cl)ccc2n(C)c1=O (stereo not drawn)	+++ (25% < Ymin ≤ 50%)
CNC(=O)COc1cc2cc(Nc3nc(N4CCC[C@@H](CNc5ccc(C6CCC(=O)NC6=O)cc5)C4)ncc3Cl)ccc2n(C)c1=O (stereo partly drawn) [Compound 106b]	++ (50% < Ymin ≤ 70%)
CNC(=O)COc1cc2cc(Nc3nc(NC[C@@H]4CCCN(c5ccc6c(C7CCC(=O)NC7=O)nn(C)c6c5)C4)ncc3Cl)ccc2n(C)c1=O (stereo partly drawn) [Compound 295b]	++ (50% < Ymin ≤ 70%)

Ymin (5 hr) for CNC(=O)COc1cc2cc(Nc3nc(NC[C@H]4CC[C@H](CNc5cccc6c(C7CCC(=O)NC7=O)nn(C)c56)CC4)ncc3Cl)ccc2n(C)c1=O (stereo partly drawn) [Compound 297b] ?
++ (50% < Ymin ≤ 70%)

----------
- ASSAYED_SYSTEM: Human BCL6 protein (N-terminal HiBiT tagged BCL6 in HT1080 cells) (Homo sapiens, UniProt P41182+Q96SW2)
- Construct: Human BCL6 protein coding open reading frame; expressed in transfected cells; host or cells: HT1080 (ATCC CCL-121), stably transduced with lentivirus pLV-UBC-N-HiBiT-BCL6-PGK-puro
- PROCEDURE_SUMMARY: HiBiT based BCL6 degradation assay
- Type: cell-based
- TEST_CONTEXT: HT1080 cells expressing N-terminal HiBiT tagged BCL6; 5 hours incubation; BCL6 degradation normalized with DMSO control
MEASURED_QUANTITY: Ymin (5 hr)

Worked cases, answers included:
COMPOUND	Ymin (5 hr)
CNC(=O)COc1cc2cc(Nc3nc(N4CCN(CC5CCN(C(=O)c6cccc7c(C8CCC(=O)NC8=O)nn(C)c67)CC5)CC4)ncc3Cl)ccc2n(C)c1=O (stereo not drawn) [Compound 323]	+++ (25% < Ymin ≤ 50%)
CNC(=O)COc1cc2cc(Nc3nc(N4CCC(CCCOc5ccc6c(C7CCC(=O)NC7=O)nn(C)c6c5)CC4)ncc3Cl)ccc2n(C)c1=O (stereo not drawn) [Compound 296]	+++ (25% < Ymin ≤ 50%)
CNC(=O)COc1cc2cc(Nc3nc(N4CCC[C@H]4CNc4ccc5c(C6CCC(=O)NC6=O)nn(C)c5c4)ncc3Cl)ccc2n(C)c1=O (stereo partly drawn) [Compound 279a]	++ (50% < Ymin ≤ 70%)
CNC(=O)COc1cc2cc(Nc3nc(N4CCC(CNC(=O)c5cccc(C6CCC(=O)NC6=O)c5)CC4)ncc3Cl)ccc2n(C)c1=O (stereo not drawn) [Compound 105]	++ (50% < Ymin ≤ 70%)

Ymin (5 hr) for CNC(=O)COc1cc2cc(Nc3nc(N4CCC[C@H](CNc5ccc(C6CCC(=O)NC6=O)cc5)C4)ncc3Cl)ccc2n(C)c1=O (stereo partly drawn) [Compound 106a] ?
++ (50% < Ymin ≤ 70%)

Ymin (5 hr) for CNC(=O)COc1cc2cc(Nc3nc(N4CCC[C@H](CNc5ccc6c(C7CCC(=O)NC7=O)nn(C)c6c5)C4)ncc3Cl)ccc2n(C)c1=O (stereo partly drawn) [Compound 261b] ?
+++ (25% < Ymin ≤ 50%)

----------
- PROCEDURE_SUMMARY: Pharmacokinetic assessment in male CD-1 mice (IV and PO)
- Format: in vivo
- TEST_CONTEXT: mouse, plasma, route not given
MEASURED_QUANTITY: Cmax (µM)
// return numeric value only (unit: µM, not printed)

COMPOUND	Cmax / µM
CNC(=O)COc1cc2cc(Nc3nc(N4CCN(CC5CCN(c6cccc7c(C8CCC(=O)NC8=O)nn(C)c67)CC5)CC4)ncc3Cl)ccc2n(C)c1=O (centres unmarked)	3.4

Continue with the next compound.
Cmax for CNC(=O)COc1cc2cc(Nc3nc(N4CCN(CC5CCN(c6ccc7c(C8CCC(=O)NC8=O)nn(C)c7c6)CC5)CC4)ncc3Cl)ccc2n(C)c1=O (centres unmarked) ?
2.55

----------
# clearance annotations
- PROCEDURE_SUMMARY: Pharmacokinetic assessment in male CD-1 mice (IV and PO)
- Assay type: in vivo
- TEST_CONTEXT: mouse, plasma, clearance (IV), commonly 1 mg/kg, non-compartmental model
// return numeric value only (unit: mL/min/kg, not printed)

COMPOUND	MEASURED_QUANTITY	RESULT_UNITS	VAL
CNC(=O)COc1cc2cc(Nc3nc(N4CCN(CC5CCN(c6ccc7c(C8CCC(=O)NC8=O)nn(C)c7c6)CC5)CC4)ncc3Cl)ccc2n(C)c1=O (centres unmarked) [Compound 102]	clearance	mL/min/kg	10.8

Continue with the next compound.
clearance for CNC(=O)COc1cc2cc(Nc3nc(N4CCN(CC5CCN(c6cccc7c(C8CCC(=O)NC8=O)nn(C)c67)CC5)CC4)ncc3Cl)ccc2n(C)c1=O (centres unmarked) [Compound 101] ?
12.8

----------
- ASSAYED_SYSTEM: Human BCL6 protein (N-terminal HiBiT tagged BCL6 in HT1080 cells) (Homo sapiens, UniProt P41182+Q96SW2)
- Construct: Human BCL6 protein coding open reading frame; expressed in transfected cells; host or cells: HT1080 (ATCC CCL-121), stably transduced with lentivirus pLV-UBC-N-HiBiT-BCL6-PGK-puro
- PROCEDURE_SUMMARY: HiBiT based BCL6 degradation assay
- Assay type: cell-based
- TEST_CONTEXT: HT1080 cells expressing N-terminal HiBiT tagged BCL6; 5 hours incubation; BCL6 degradation normalized with DMSO control
MEASURED_QUANTITY: Ymin (5 hr)

Worked cases, answers included:
COMPOUND	Ymin (5 hr)
CNC(=O)COc1cc2cc(Nc3nc(N4CCN(CC5CCN(c6ccc7c(C8CCC(=O)NC8=O)nn(C)c7c6)CC5)CC4)ncc3Cl)ccc2n(C(C)C)c1=O (stereo not shown)	+++ (25% < Ymin ≤ 50%)
CNC(=O)COc1cc2cc(Nc3nc(N4CCC[C@H](CCNc5ccc6c(C7CCC(=O)NC7=O)nn(C)c6c5)C4)ncc3Cl)ccc2n(C)c1=O (single isomer, unassigned) [Compound 290a]	++ (50% < Ymin ≤ 70%)
CNC(=O)COc1cc2cc(Nc3nc(N4CCCC5(CCCN(c6cccc7c(C8CCC(=O)NC8=O)nn(C)c67)C5)C4)ncc3Cl)ccc2n(C)c1=O (stereo not shown)	++ (50% < Ymin ≤ 70%)
CNC(=O)COc1cc2cc(Nc3nc(NCc4ccc(CNc5cccc6c(C7CCC(=O)NC7=O)nn(C)c56)cc4)ncc3Cl)ccc2n(C)c1=O (stereo not shown)	++ (50% < Ymin ≤ 70%)
CNC(=O)COc1cc2cc(Nc3nc(N4CCC[C@@H](CNc5ccc6c(C7CCC(=O)NC7=O)nn(C)c6c5)C4)ncc3Cl)ccc2n(C)c1=O (stereo partly shown) [Compound 261a]	++ (50% < Ymin ≤ 70%)

Ymin (5 hr) for CNC(=O)COc1cc2cc(Nc3nc(N4CCN(C[C@@H]5CCN(c6ccc7c(C8CCC(=O)NC8=O)nn(C)c7c6)C5)CC4)ncc3Cl)ccc2n(C)c1=O (stereo partly shown) [Compound 306b] ?
++++ (Ymin ≤ 25%)

Ymin (5 hr) for CNC(=O)COc1cc2cc(Nc3nc(N4CCC(CC5CCN(c6ccc7c(C8CCC(=O)NC8=O)nn(C)c7c6)C5)CC4)ncc3Cl)ccc2n(C)c1=O (stereo not shown) ?
+++ (25% < Ymin ≤ 50%)

Ymin (5 hr) for CNC(=O)COc1cc2cc(Nc3nc(N4CC5CCC(Nc6cccc7c(C8CCC(=O)NC8=O)nn(C)c67)CC5C4)ncc3Cl)ccc2n(C)c1=O (stereo not shown) ?
++ (50% < Ymin ≤ 70%)
